System: A549
Assay: Antiproliferative activity against human A549 cells incubated for 72 hrs by CCK8 cells
Type: functional, cell-based
Settings: A549, 72 h
pIC50: −log10 of the molar value.
endpoint: pIC50

Before answering, review these 3 worked examples.
# compound, pIC50
measured = [
    ("C=C1C(=O)[C@]23[C@H](OC(=O)c4cc(F)ccc4F)[C@H]1CC[C@H]2[C@@]12CO[C@]3(O)[C@@H](O)[C@@H]1C(C)(C)CC[C@@H]2O", 4.97),
    ("C=C1C(=O)[C@]23[C@H](OC(=O)/C=C/c4ccc(OC)cc4)[C@H]1CC[C@H]2[C@@]12CO[C@]3(O)[C@@H](O)[C@@H]1C(C)(C)CC[C@@H]2O", 4.92),
    ("C=C1C(=O)[C@]23[C@H](OC(=O)c4ccc(F)c(NC(=O)Cc5ccc(OC)c(OC)c5)c4)[C@H]1CC[C@H]2[C@@]12CO[C@]3(O)[C@@H](O)[C@@H]1C(C)(C)CC[C@@H]2O", 4.76),
]

[a] C=C1C(=O)[C@]23[C@H](O)[C@H]1CC[C@H]2[C@@]12CO[C@]3(O)[C@@H](OC(C)=O)[C@@H]1C(C)(C)CC[C@@H]2OC(C)=O
[b] C=C1C(=O)[C@]23[C@H](OC(=O)c4ccc(CCl)cc4)[C@H]1CC[C@H]2[C@@]12CO[C@]3(O)[C@@H](O)[C@@H]1C(C)(C)CC[C@@H]2O
[c] C=C1C(=O)[C@]23[C@H](O)[C@H]1CC[C@H]2[C@@]12CO[C@]3(O)[C@@H](O)[C@@H]1C(C)(C)CC[C@@H]2O
-- ask Order these by pIC50, descending, and give the full ranking. // rank by listing labels in the order requested
-- reply a, b, c

[A] C=C1C(=O)[C@]23[C@H](OC(=O)c4ccc(OCc5ccccc5)cc4F)[C@H]1CC[C@H]2[C@@]12CO[C@]3(O)[C@@H](O)[C@@H]1C(C)(C)CC[C@@H]2O
[B] C=C1C(=O)[C@]23[C@H](OC(=O)c4cccnc4Cl)[C@H]1CC[C@H]2[C@@]12CO[C@]3(O)[C@@H](O)[C@@H]1C(C)(C)CC[C@@H]2O
[C] C=C1C(=O)[C@]23[C@H](OC(=O)/C=C/c4cc(OC)c(OC)c(OC)c4)[C@H]1CC[C@H]2[C@@]12CO[C@]3(O)[C@@H](O)[C@@H]1C(C)(C)CC[C@@H]2O
-- ask Highest pIC50 first, then in falling order down to the smallest. // format: requested-order list of labels
-- reply C, A, B
(C: 5.06, A: 4.85, B: 4.51)

[1] C=C1C(=O)[C@]23[C@H](OC(=O)CCc4ccc(OC)cc4)[C@H]1CC[C@H]2[C@@]12CO[C@]3(O)[C@@H](O)[C@@H]1C(C)(C)CC[C@@H]2O
[2] C=C1C(=O)[C@]23[C@H](OC(=O)/C=C/c4ccc(OC)c(OC)c4)[C@H]1CC[C@H]2[C@@]12CO[C@]3(O)[C@@H](O)[C@@H]1C(C)(C)CC[C@@H]2O
-- ask Which gives the smaller pIC50 number: 1 or 2 ? Mark your answer with the label of the selected entry.
-- reply 2

[P] C=C1C(=O)[C@]23[C@H](OC(=O)c4ccc(F)c(NC(=O)c5ccc(OC(F)(F)F)cc5)c4)[C@H]1CC[C@H]2[C@@]12CO[C@]3(O)[C@@H](O)[C@@H]1C(C)(C)CC[C@@H]2O
[Q] C=C1C(=O)[C@]23[C@H](OC(=O)c4ccc(F)c(F)c4F)[C@H]1CC[C@H]2[C@@]12CO[C@]3(O)[C@@H](O)[C@@H]1C(C)(C)CC[C@@H]2O
-- ask Which item exceeds the other in pIC50, P or Q ? Answer by stating the label of the chosen item.
-- reply Q
(Q: 4.91, P: 4.68)
